tested on: M14 melanoma; test: NCI tumour cell line growth inhibition, 48 h
Each entry below carries its recorded TGI.

compound	TGI
Cc1ccc2c(=O)cc(-c3ccc(Cl)s3)[nH]c2n1	> 100 µM
O=C1NC(=O)C(C(CC(=O)c2ccc([N+](=O)[O-])cc2)c2ccccc2)C(=O)N1 (configuration not stated)	> 100 µM
O=C(N/N=C/C=C/c1ccc([N+](=O)[O-])o1)c1cc2ccccc2cc1O	2.15 µM

Proceeding to the next compound to report its TGI.
Q) Given COP(=O)(OC)C(Cc1cn(C(C)=O)c2ccccc12)C(=O)O (configuration not stated) , state its recorded TGI.
A) > 100 µM

====

test system: NCI-H226 lung; assay: NCI tumour cell line growth inhibition, 48 h
Each entry below carries its recorded GI50.

The following compounds have reported results that may help.
                                   compound  measured_result
0  C=CCN=C(N/N=C/c1ccc([N+](=O)[O-])o1)NS(=O)(=O)c1cc(C(=O)Nc2ccc(Cl)cc2)c(Cl)cc1SC          13.5 µM
1  CCNCCCn1c2c(c3ccc(Cl)cc3c1=O)C(=O)c1cc(OC)cnc1-2           1.4 µM
2  Cc1ccccc1OCC(O)CN1CCN(c2ccc(Cl)cc2)CC1 (stereo not given)          18.6 µM
3  CC(=O)[CH-]C(=O)c1ccccc1.CC(=O)[CH-]C(=O)c1ccccc1.CC[O-].CC[O-].[Hf+4]         > 100 µM

Proceeding to the next compound to report its GI50.
Q) Given C[C@@]12CCC(=O)c3coc(c31)C(=O)c1cc3c(cc12)C(=O)C=CC3=O , state its recorded GI50.
A) > 1 µM

====

tested on: HCT-15 colon; test: NCI tumour cell line growth inhibition, 48 h; in the data active means GI50 below about 0.43 µM; inactive means the rest
Log the outcome using a class from true (1) for active, false (0) for inactive

Solved cases below.
compound	label-value
NS(=O)(=O)c1ccc(/C=C/c2ccc(F)cc2)cc1	false (0)
Cc1ccc(S(=O)(=O)c2c(COC(=O)c3cccc(C)c3)c(-c3ccccc3)nn2C)cc1	false (0)

Q) For this compound, state the assay outcome: O=C1OCC2=C1C(c1cccc(Cl)c1)c1cc3c(cc1N2CCO)OCCO3 (centres undefined)
A) true (1)

Q) For this compound, state the assay outcome: CSC1=C(N)C(=O)c2[nH]cc(CO)c2C1=N
A) true (1)

====

tested on: HOP-62 NSCLC; assay: NCI tumour cell line growth inhibition, 48 h
quantity-kind: TGI

The following molecules have reported results that may help.
molecule	quantity-kind	measured-result
COC(=O)C1(Cc2ccc3c(c2)CCC3)Cc2ccccc2C1O (configuration not stated)	TGI	46.3 µM
CCCCC(=O)c1c(O)nc2sccn2c1=O	TGI	> 10 µM
COc1ccc(CC(N)c2ccc(OC)cc2)cc1 (configuration not stated)	TGI	> 100 µM
Cc1cc(-c2nc3cc(F)ccc3s2)ccc1NC(=O)[C@@H](N)CCCCN	TGI	11 µM
Cc1ccc(OCC2OC(n3cnc4nc(N)nc(Cl)c43)CC2Oc2ccc(C)cc2)cc1 (configuration not stated)	TGI	52.6 µM

Q) Which TGI is reported with HOP-62 NSCLC for this entry: COc1ccc2c(CN3CCCC[C@H]3C(=O)O)cc3cc4c(cc3c2c1)OCO4 ?
A) > 100 µM

Q) Which TGI is reported with HOP-62 NSCLC for this entry: Cn1ncnc1[C@H]1c2n[nH]c(=O)c3cc(F)cc(c23)N[C@@H]1c1ccc(F)cc1 ?
A) > 100 µM

Q) Which TGI is reported with HOP-62 NSCLC for this entry: CC(C)CCCC(C)[C@H]1CCC2[C@@H]3CCC4Cc5nc6c(nc5C[C@]4(C)C3CC[C@@]21C)CC1CC[C@@H]2C(CC[C@@]3(C)C2CC[C@@H]3C(C)CCCC(C)C)[C@@]1(C)C6 (some centres not stated) ?
A) > 100 µM

Q) Which TGI is reported with HOP-62 NSCLC for this entry: NCCCC[C@@H]1NC(=O)[C@H]2CCCN2C(=O)[C@H](Cc2ccccc2)CNC(=O)[C@H](Cc2ccccc2)NC1=O ?
A) > 37.5 µM

Q) Which TGI is reported with HOP-62 NSCLC for this entry: CCOc1ccc(N/C(=C(/C(Cl)=C(/Cl)N(CC)CC)[N+](=O)[O-])n2nnc3ccccc32)cc1 ?
A) > 100 µM

Q) Which TGI is reported with HOP-62 NSCLC for this entry: C#CC#CC#CC#CC#CC#CC#CC#CCC1OCC(COC(=O)O[C@@H](C(=O)O[C@H]2C[C@@]3(O)[C@@H](OC(=O)c4ccccc4)[C@@H]4[C@]5(OC(C)=O)CO[C@@H]5C[C@H](O)[C@@]4(C)C(=O)[C@H](OC(C)=O)C(=C2C)C3(C)C)[C@@H](NC(=O)c2ccccc2)c2ccccc2)O1 (some centres not stated) ?
A) > 33.3 µM

Q) Which TGI is reported with HOP-62 NSCLC for this entry: Cc1ccc(C(N)=O)cc1N=NN(C)C ?
A) > 100 µM

Q) Which TGI is reported with HOP-62 NSCLC for this entry: C[N+](C)(C)c1ccc(C(N)C(=O)O)cc1 (configuration not stated) ?
A) > 100 µM

Q) Which TGI is reported with HOP-62 NSCLC for this entry: CCN(CC)N1C(=O)[N+](CC)(CC)N=C1[O-] ?
A) > 100 µM

Q) Which TGI is reported with HOP-62 NSCLC for this entry: O=[N+]([O-])c1ccc(-n2nnc(C3=NCCN3)c2-c2ccccc2)cc1 ?
A) > 100 µM

Q) Which TGI is reported with HOP-62 NSCLC for this entry: CO/N=C1\CC(NC(=O)CNC(=O)OC(C)(C)C)c2ccsc21 (configuration not stated) ?
A) > 100 µM

====

test system: HL-60(TB) leukemia; assay: NCI tumour cell line growth inhibition, 48 h; in the data active = GI50 below about 0.43 µM; inactive = the rest
Log the outcome using a class from class 1 = active, class 0 = inactive

Solved cases below.
>>> print(df.to_string())
                                   molecule  label_value
0  Cc1ccc(S(=O)(=O)c2c(COC(=O)c3cccc(C)c3)c(-c3ccccc3)nn2C)cc1      class 0
1  CC(=O)[CH-]C(=O)c1ccccc1.CC(=O)[CH-]C(=O)c1ccccc1.CC[O-].CC[O-].[Hf+4]      class 0
2      NS(=O)(=O)c1ccc(/C=C/c2ccc(F)cc2)cc1      class 0
3  Cc1c(C(=O)Nc2ccccc2)sc2ncn(Cc3cccc(Cl)c3)c(=O)c12      class 0
4            N#C/C(=C\c1ccsc1)c1nc2ccccc2o1      class 0
5  O=C1c2cc3c(cc2[C@@H]2[C@H]1c1ccc([N+](=O)[O-])cc1C(=O)N2CCCBr)OCO3      class 1
6  C=CCN=C(N/N=C/c1ccc([N+](=O)[O-])o1)NS(=O)(=O)c1cc(C(=O)Nc2ccc(Cl)cc2)c(Cl)cc1SC      class 0
7     COc1ccc(CCN2CC=Cn3c2nc2ccccc2c3=O)cc1      class 1

Q) For this molecule, state the assay outcome: CC1=C(C(=O)Nc2ccc3n[nH]c(C)c3c2)C(c2ccc(C(F)(F)F)cc2)CC(=O)N1 (stereo unspecified)
A) class 0

Q) For this molecule, state the assay outcome: Cc1cc([N+](=O)[O-])c(NS(=O)(=O)c2cccc(C(=O)O)c2)cc1-c1cccnc1
A) class 0

====

system: NCI-H522 lung; test: NCI tumour cell line growth inhibition, 48 h
quantity-kind: TGI (µM)
Return type: number; implicit unit µM.

In [3]: df
Out[3]:
                                   molecule  measurement_target  display_unit  measured_result
0  CN(C)c1ccc(/C(F)=C(F)/C(F)=C(F)/C(F)=C(\F)c2ccc(Br)cc2)cc1       NCI-H522 lung            µM             27.1

Q) Given Cc1cc(-c2nc3cc(F)ccc3s2)ccc1NC(=O)[C@@H](N)CCCCN , state its recorded TGI.
A) 21

Q) Given Cc1ccccc1C1OC(=O)c2ccc3ccccc3c21 (stereo not given) , state its recorded TGI.
A) 4.89

Q) Given CC[C@@]1(O)C(=O)OCc2c1cc1n(c2=O)Cc2cc3cc4c(cc3nc2-1)OCO4 , state its recorded TGI.
A) 0.113

Q) Given Cc1cc2c(C(C)C)c(O)c(O)cc2c(O)c1-c1c(C)cc2c(C(C)C)c(O)c(O)cc2c1O , state its recorded TGI.
A) 24.5

Q) Given COc1c(O)c(C=O)c2c(O)c(-c3c(C)cc4c(C(C)C)c(OC)c(O)c(C=O)c4c3O)c(C)cc2c1C(C)C , state its recorded TGI.
A) 6.56

====

Each entry below carries its recorded TGI.
system: HS 578T breast; experiment: NCI tumour cell line growth inhibition, 48 h
Return type: number; implicit unit µM.

Q) Given Cc1cc(NCCCN(C)C)c2ccc3c(ccc4c(NCCCN(C)C)cc(C)nc43)c2n1 , state its recorded TGI.
A) 0.667

Q) Given COc1ccc2c3c1OC1C(=O)C=CC4(CC2)N(C)CCC314 (stereo not given) , state its recorded TGI.
A) 92.5

Q) Given C=C(C(N)=O)c1ccc([N+](=O)[O-])o1 , state its recorded TGI.
A) 77.1

Q) Given [Cl][Sn]([c]1ccccc1)([c]1ccccc1)[c]1ccccc1 , state its recorded TGI.
A) 23
